Test system: CXCR4-expressing Chem_1 cells
method.description: Determination of internalization, dual tracer with 125I-Fc-131
Assay type: cell-based
condition.description: 30 min; of total cellular activity
Positions of bridges follow the written chain, without caps; N, C: chain ends. Non-standard residues stand in square brackets, D forms with d. Residues, ends and D or L forms follow the SMILES beside them. Groups on a side chain read outwards from the residue. Chains are numbered I, II in the order given. *: point of attachment. X8 = NCCNCC(CNCCN)C(=O)NC[C@@H](NC(=O)CCC(NC(=O)N[C@H](CCC(=O)O)C(=O)O)C(=O)O)C(=O)*; DOTA = O=C(O)CN1CCN(CC(=O)O)CCN(CC(=O)*)CCN(CC(=O)O)CC1; dTyr(3-I) = N[C@H](Cc1ccc(O)c(I)c1)C(=O)O; 2Nal = N[C@@H](Cc1ccc2ccccc2c1)C(=O)O; dCit = NC(=O)NCCC[C@@H](N)C(=O)O; dNMeOrn = CN[C@H](CCCN)C(=O)O; HYNIC = NNc1ccc(C(=O)*)cn1; 4Amb = NCc1ccc(C(=O)O)cc1; Mercaptoacetyl = O=C(CS)*; 4Abz = Nc1ccc(C(=O)O)cc1; dDap = NC[C@@H](N)C(=O)O
Returns 1 if the recorded Internalized [%] is greater than or equal to 10%, and 0 otherwise.

stdin: # check: Internalized [%] of C[C@@H](NC(=O)[C@@H](CCCNC(=N)N)NC(=O)[C@@H](CN)NC(=O)CN1CCN(CC(=O)O)CCN(CC(=O)O)CCN(CC(=O)O)CC1)C(=O)Nc1ccc(C(=O)NCCC[C@@H]2C(=O)N[C@@H](CCCNC(=N)N)C(=O)N[C@@H](Cc3ccc4ccccc4c3)C(=O)NCC(=O)N[C@H](Cc3ccc(O)c(I)c3)C(=O)N2C)cc1 [CXCR4-DOTA-4 [Lu]] (cyclo([dTyr(3-I)][dNMeOrn]([4Abz-dA-dR-dDap-DOTA])R[2Nal]G)) is greater than or equal to 10%
stdout: 1

stdin: Same read-out for C[C@@H](NC(=O)[C@@H](CCCNC(=N)N)NC(=O)[C@@H](CN)NC(=O)[C@@H](CO)NC(=O)[C@@H](CO)NC(=O)[C@@H](CO)NC(=O)CS)C(=O)Nc1ccc(C(=O)NCCC[C@@H]2C(=O)N[C@@H](CCCNC(=N)N)C(=O)N[C@@H](Cc3ccc4ccccc4c3)C(=O)NCC(=O)N[C@H](Cc3ccc(O)cc3)C(=O)N2C)cc1 [Tc-CXCR4-6] (I: Mercaptoacetyl-[dS][dS][dS][dDap][dR][dA][4Abz] / II: cyclo([dY][dNMeOrn]R[2Nal]G); amide I:C-II:2) ?
stdout: 1

stdin: Same read-out for C[C@@H](NC(=O)[C@@H](CCCNC(=N)N)NC(=O)[C@@H](CN)NC(=O)c1ccc(NN)nc1)C(=O)Nc1ccc(C(=O)NCCC[C@@H]2C(=O)N[C@@H](CCCNC(=N)N)C(=O)N[C@@H](Cc3ccc4ccccc4c3)C(=O)NCC(=O)N[C@H](Cc3ccc(O)cc3)C(=O)N2C)cc1 [Tc-CXCR4-13] (cyclo([dY][dNMeOrn]([4Abz-dA-dR-dDap-HYNIC])R[2Nal]G)) ?
stdout: 1

stdin: Same read-out for C[C@@H](NC(=O)[C@@H](CCCNC(=N)N)NC(=O)[C@@H](Cc1c[nH]cn1)NC(=O)[C@@H](CNC(=O)c1ccc([Si](F)(C(C)(C)C)C(C)(C)C)cc1)NC(=O)CC[C@H](C(=O)O)N1CCN(CC(=O)O)CCN(CC(=O)O)CCN(CC(=O)O)CC1)C(=O)Nc1ccc(C(=O)NCCC[C@@H]2C(=O)N[C@@H](CCCNC(=N)N)C(=O)N[C@@H](Cc3ccc4ccccc4c3)C(=O)NCC(=O)N[C@H](Cc3ccc(O)cc3)C(=O)N2C)cc1 [CXCR4-SiFA-2 [Ga]] ?
stdout: 1

stdin: Same read-out for C[C@@H](NC(=O)[C@@H](CCCNC(=N)N)NC(=O)[C@@H](CN)NC(=O)CN1CCN(CC(=O)O)CCN(CC(=O)O)CCN(CC(=O)O)CC1)C(=O)NCc1ccc(C(=O)NCCC[C@@H]2C(=O)N[C@@H](CCCNC(=N)N)C(=O)N[C@@H](Cc3ccc4ccccc4c3)C(=O)NCC(=O)N[C@H](Cc3ccc(O)c(I)c3)C(=O)N2C)cc1 [CXCR4-DOTA-2 [Lu]] (cyclo([dTyr(3-I)][dNMeOrn]([4Amb-dA-dR-dDap-DOTA])R[2Nal]G)) ?
stdout: 1

stdin: Same read-out for C[C@@H](NC(=O)[C@@H](CCCNC(=N)N)NC(=O)[C@@H](CN)NC(=O)[C@@H](CNC(=O)C(CNCCN)CNCCN)NC(=O)CCC(NC(=O)N[C@H](CCC(=O)O)C(=O)O)C(=O)O)C(=O)Nc1ccc(C(=O)NCCC[C@@H]2C(=O)N[C@@H](CCCNC(=N)N)C(=O)N[C@@H](Cc3ccc4ccccc4c3)C(=O)NCC(=O)N[C@H](Cc3ccc(O)cc3)C(=O)N2C)cc1 (stereo partly shown) [Tc-CXCR4-15] (cyclo([2Nal]G[dY][dNMeOrn]([4Abz-dA-dR-dDap-X8])R)) ?
stdout: 1

stdin: Same read-out for C[C@@H](NC(=O)[C@@H](CCCNC(=N)N)NC(=O)[C@@H](CN)NC(=O)CCCCCNC(=O)[C@@H](CNC(=O)CN1CCN(CC(=O)O)CCN(CC(=O)O)CCN(CC(=O)O)CC1)NC(=O)CCCCC[N+]1=C(/C=C/C=C/C=C2/N(C)c3ccc(S(=O)(=O)O)cc3C2(C)C)C(C)(C)c2cc(S(=O)(=O)[O-])ccc21)C(=O)Nc1ccc(C(=O)NCCC[C@@H]2C(=O)N[C@@H](CCCNC(=N)N)C(=O)N[C@@H](Cc3ccc4ccccc4c3)C(=O)NCC(=O)N[C@H](Cc3ccc(O)cc3)C(=O)N2C)cc1 [[^natLu]CXCR4-OI-3, metal not drawn] ?
stdout: 1

stdin: Same read-out for C[C@@H](NC(=O)[C@@H](CCCNC(N)=O)NC(=O)[C@@H](CN)NC(=O)CN1CCN(CC(=O)O)CCN(CC(=O)O)CCN(CC(=O)O)CC1)C(=O)Nc1ccc(C(=O)NCCC[C@@H]2C(=O)N[C@@H](CCCNC(=N)N)C(=O)N[C@@H](Cc3ccc4ccccc4c3)C(=O)NCC(=O)N[C@H](Cc3ccc(O)cc3)C(=O)N2C)cc1 [CXCR4-DOTA-5 [Lu]] (cyclo([dY][dNMeOrn]([4Abz-dA-dCit-dDap-DOTA])R[2Nal]G)) ?
stdout: 0

stdin: Same read-out for C[C@@H](NC(=O)[C@@H](CCCNC(=N)N)NC(=O)[C@@H](CN)NC(=O)CN1CCN(CC(=O)O)CCN(CC(=O)O)CCN(CC(=O)O)CC1)C(=O)Nc1ccc(C(=O)NCCC[C@@H]2C(=O)N[C@@H](CCCNC(=N)N)C(=O)N[C@@H](Cc3ccc4ccccc4c3)C(=O)NCC(=O)N[C@H](Cc3ccc(O)cc3)C(=O)N2C)cc1 [CXCR4-DOTA-3 [Lu]] (cyclo([dY][dNMeOrn]([4Abz-dA-dR-dDap-DOTA])R[2Nal]G)) ?
stdout: 1

stdin: Same read-out for C[C@@H](NC(=O)[C@@H](CCCNC(=N)N)NC(=O)[C@@H](CN)NC(=O)CN1CCN(CC(=O)O)CCN(CC(=O)O)CCN(CC(=O)O)CC1)C(=O)NCc1ccc(C(=O)NCCC[C@@H]2C(=O)N[C@@H](CCCNC(=N)N)C(=O)N[C@@H](Cc3ccc4ccccc4c3)C(=O)NCC(=O)N[C@H](Cc3ccc(O)cc3)C(=O)N2C)cc1 [CXCR4-DOTA-1 [Lu]] (cyclo([dY][dNMeOrn]([4Amb-dA-dR-dDap-DOTA])R[2Nal]G)) ?
stdout: 0

---

What tissue uptake at 1 h was measured for each of the following?
method.description: Biodistribution in Jurkat tumor-bearing CB-17 SCID mice
Assay type: in vivo
condition.description: female, CB-17 SCID, mouse, in vivo, iv, total radioactivity, % iD/g Liver
Non-standard residues stand in square brackets, D forms with d. Residues, ends and D or L forms follow the SMILES beside them. Groups on a side chain read outwards from the residue. *: point of attachment. DOTA = O=C(O)CN1CCN(CC(=O)O)CCN(CC(=O)*)CCN(CC(=O)O)CC1; dTyr(3-I) = N[C@H](Cc1ccc(O)c(I)c1)C(=O)O; 2Nal = N[C@@H](Cc1ccc2ccccc2c1)C(=O)O; dNMeOrn = CN[C@H](CCCN)C(=O)O; 4Amb = NCc1ccc(C(=O)O)cc1; 4Abz = Nc1ccc(C(=O)O)cc1; dDap = NC[C@@H](N)C(=O)O
Please state the number and follow it with the unit.

stdin: Any idea what its tissue uptake at 1 h is? The molecule is C[C@@H](NC(=O)[C@@H](CCCNC(=N)N)NC(=O)[C@@H](CN)NC(=O)CN1CCN(CC(=O)O)CCN(CC(=O)O)CCN(CC(=O)O)CC1)C(=O)Nc1ccc(C(=O)NCCC[C@@H]2C(=O)N[C@@H](CCCNC(=N)N)C(=O)N[C@@H](Cc3ccc4ccccc4c3)C(=O)NCC(=O)N[C@H](Cc3ccc(O)cc3)C(=O)N2C)cc1 [CXCR4-DOTA-3 [Lu]] (cyclo([dY][dNMeOrn]([4Abz-dA-dR-dDap-DOTA])R[2Nal]G))
stdout: 8.48 %ID/g

stdin: Same read-out for C[C@@H](NC(=O)[C@@H](CCCNC(=N)N)NC(=O)[C@@H](CN)NC(=O)CN1CCN(CC(=O)O)CCN(CC(=O)O)CCN(CC(=O)O)CC1)C(=O)Nc1ccc(C(=O)NCCC[C@@H]2C(=O)N[C@@H](CCCNC(=N)N)C(=O)N[C@@H](Cc3ccc4ccccc4c3)C(=O)NCC(=O)N[C@H](Cc3ccc(O)c(I)c3)C(=O)N2C)cc1 [CXCR4-DOTA-4 [Lu]] (cyclo([dTyr(3-I)][dNMeOrn]([4Abz-dA-dR-dDap-DOTA])R[2Nal]G)) ?
stdout: 19.2 %ID/g

stdin: Same read-out for C[C@@H](NC(=O)[C@@H](CCCNC(=N)N)NC(=O)[C@@H](CN)NC(=O)CN1CCN(CC(=O)O)CCN(CC(=O)O)CCN(CC(=O)O)CC1)C(=O)NCc1ccc(C(=O)NCCC[C@@H]2C(=O)N[C@@H](CCCNC(=N)N)C(=O)N[C@@H](Cc3ccc4ccccc4c3)C(=O)NCC(=O)N[C@H](Cc3ccc(O)cc3)C(=O)N2C)cc1 [CXCR4-DOTA-1 [Lu]] (cyclo([dY][dNMeOrn]([4Amb-dA-dR-dDap-DOTA])R[2Nal]G)) ?
stdout: 11 %ID/g

Data provenance is patent US20250288704A1.
